# assayProtocol: plasma concentration / oral absorption in dogs
# Assay type: in vivo, dog
# studyConditions: plasma; dog; one hour; oral 50 to 300 mg/kg; suspensions or capsules; read-out: plasma concentration one hour after oral administration, dog
measuredAttribute: concentration at 1 h

For reference, reported concentration at 1 h for O=C(Nc1nnn[nH]1)c1cnc2sc3c(n2c1=O)CCCC3 stands at 9000 to 26000 ng/mL
